# ASSAYED SYSTEM: 5-HT (serotonin) reuptake complex (Rattus norvegicus, UniProt P31652)
# Construct: from tissue; host or cells: rat cortical brain homogenates
# Sequence (P31652 whole entry, one chain of several): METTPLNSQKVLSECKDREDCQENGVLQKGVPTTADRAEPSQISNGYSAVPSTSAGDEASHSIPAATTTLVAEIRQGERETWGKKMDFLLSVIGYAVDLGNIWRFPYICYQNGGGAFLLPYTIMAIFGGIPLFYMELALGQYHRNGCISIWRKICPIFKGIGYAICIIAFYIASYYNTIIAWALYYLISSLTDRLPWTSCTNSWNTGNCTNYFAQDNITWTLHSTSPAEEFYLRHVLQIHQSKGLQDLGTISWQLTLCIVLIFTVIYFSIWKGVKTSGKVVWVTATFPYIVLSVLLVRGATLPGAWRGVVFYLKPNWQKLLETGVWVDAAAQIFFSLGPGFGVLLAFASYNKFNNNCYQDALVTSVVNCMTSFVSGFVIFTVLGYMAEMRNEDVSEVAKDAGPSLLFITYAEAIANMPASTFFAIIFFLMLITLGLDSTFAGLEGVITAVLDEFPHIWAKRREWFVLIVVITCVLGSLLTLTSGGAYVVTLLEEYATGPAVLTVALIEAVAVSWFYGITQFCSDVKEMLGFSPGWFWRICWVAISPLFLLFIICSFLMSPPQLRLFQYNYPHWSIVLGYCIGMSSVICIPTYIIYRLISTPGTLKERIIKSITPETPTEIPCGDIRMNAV
# PROCEDURE DETAILS: competition with 3H-paroxetine for the 5-HT reuptake complex in rat cortical brain homogenates (Ki)
# Format: binding
# SETUP CONDITIONS: Ki of analogue relative to Ki of 6-NQP
One threshold, 40, splits the recorded Potency Ratio values: lower ones are TRUE, equal or higher ones are FALSE.

{"columns": ["COMPOUND", "ASSAYED SYSTEM", "CLASS"],
 "data": [
  ["O=[N+]([O-])c1ccc2nc(N3CCNCC3)c(Br)cc2c1", "5-HT (serotonin) reuptake complex (Rattus norvegicus, UniProt P31652)", "FALSE"],
  ["O=[N+]([O-])c1cc(Br)c2nc(N3CCNCC3)ccc2c1", "5-HT (serotonin) reuptake complex (Rattus norvegicus, UniProt P31652)", "FALSE"],
  ["O=[N+]([O-])c1ccc2nc(N3CCNCC3)ccc2c1 [6-NQP, 6-nitro-2-N-piperazinylquinoline, reference compound]", "5-HT (serotonin) reuptake complex (Rattus norvegicus, UniProt P31652)", "TRUE"],
  ["O=[N+]([O-])c1ccc2nc(N3CCNCC3)ccc2c1Br", "5-HT (serotonin) reuptake complex (Rattus norvegicus, UniProt P31652)", "TRUE"],
  ["O=[N+]([O-])c1cc2ccc(N3CCNCC3)nc2cc1Br", "5-HT (serotonin) reuptake complex (Rattus norvegicus, UniProt P31652)", "TRUE"],
  ["O=[N+]([O-])c1ccc2nc(N3CCNCC3)cc(Br)c2c1", "5-HT (serotonin) reuptake complex (Rattus norvegicus, UniProt P31652)", "FALSE"]
]}

----------
# ASSAYED SYSTEM: 5-HT (serotonin) reuptake complex (Rattus norvegicus, UniProt P31652)
# Construct: Rat cortical brain homogenates were incubated with 3H-paroxetine; from tissue; host or cells: rat cortical brain homogenates
# PROCEDURE DETAILS: competition with 3H-paroxetine for the 5-HT reuptake complex in rat cortical brain homogenates (Ki)
# Assay type: binding
pKi: −log10 of the molar value.

{"columns": ["MOLECULE", "ASSAYED SYSTEM", "pKi"],
 "data": [
  ["O=[N+]([O-])c1cc2ccc(N3CCNCC3)nc2cc1Br [7-Br-6-NQP, 7-Bromo-6-nitro-2-piperazinylquinoline]", "5-HT (serotonin) reuptake complex (Rattus norvegicus, UniProt P31652)", 8.39],
  ["O=[N+]([O-])c1ccc2nc(N3CCNCC3)ccc2c1Br [5-Br-6-NQP, 5-Bromo-6-nitro-2-piperazinylquinoline]", "5-HT (serotonin) reuptake complex (Rattus norvegicus, UniProt P31652)", 9.89],
  ["O=[N+]([O-])c1cc(Br)c2nc(N3CCNCC3)ccc2c1 [8-Br-6-NQP, 8-Bromo-6-nitro-2-piperazinylquinoline]", "5-HT (serotonin) reuptake complex (Rattus norvegicus, UniProt P31652)", 7.74],
  ["O=[N+]([O-])c1ccc2nc(N3CCNCC3)c(Br)cc2c1 [3-Br-6-NQP, 3-Bromo-6-nitro-2-piperazinylquinoline]", "5-HT (serotonin) reuptake complex (Rattus norvegicus, UniProt P31652)", 8.02]
]}
